target of assay: Recombinant human Src (Homo sapiens)
Construct: made in house; host or cells: baculovirus-insect cell system
Sequence (P12931 whole entry): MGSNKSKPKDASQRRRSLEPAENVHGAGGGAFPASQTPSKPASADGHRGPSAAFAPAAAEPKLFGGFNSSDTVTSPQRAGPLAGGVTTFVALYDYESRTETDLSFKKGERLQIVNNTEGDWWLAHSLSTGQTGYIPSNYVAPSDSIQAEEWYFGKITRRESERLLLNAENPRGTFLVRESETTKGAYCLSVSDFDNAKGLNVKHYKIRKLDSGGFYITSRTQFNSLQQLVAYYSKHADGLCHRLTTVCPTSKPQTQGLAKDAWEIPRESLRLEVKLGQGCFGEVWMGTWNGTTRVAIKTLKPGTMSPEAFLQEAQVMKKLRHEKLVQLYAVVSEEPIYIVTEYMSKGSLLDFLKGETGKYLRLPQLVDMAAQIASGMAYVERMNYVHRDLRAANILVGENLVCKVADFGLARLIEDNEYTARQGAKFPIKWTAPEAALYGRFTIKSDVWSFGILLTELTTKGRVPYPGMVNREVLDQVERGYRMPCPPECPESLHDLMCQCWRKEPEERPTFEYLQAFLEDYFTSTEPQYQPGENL
assay info: Src tyrosine kinase activity, poly E4Y / 32P-ATP phosphorylation assay
Type: biochemical
cond: poly E4Y / 32P-ATP; Formula IV compounds
Label rule met when IC50 is strictly below 200 µM; at or above that, label rule not met.

*Q* Item COc1ccc(Oc2ccc(NS(=O)(=O)c3ccc(C)cc3)c(N)c2)cc1 [Compound 71l] : IC50 beneath 200 µM, strictly?
*A* rule met

*Q* Is the reported IC50 for COc1ccc(Oc2ccc(NS(=O)(=O)c3ccc(C)cc3)c(OCCO)c2)cc1 strictly below 200 µM?
*A* rule met

*Q* Would you kindly verify if IC50 of COc1ccc(OCc2ccc(OS(=O)(=O)c3ccc(C)cc3)c(OS(=O)(=O)c3ccc(C)cc3)c2)cc1 is strictly less than 200 µM?
*A* rule met

*Q* Problem: For the compound COc1ccc(Oc2ccc(NS(=O)(=O)c3ccc(C)cc3)c(OC)c2)cc1 , is IC50 under 200 µM?
*A* rule met

*Q* Input Cc1ccc(S(=O)(=O)N(C)c2cc(Sc3ccc(Cl)cc3)c([N+](=O)[O-])cc2N(C)S(=O)(=O)c2ccc(C)cc2)cc1 ; condition: IC50 strictly below 200 µM. Does it hold?
*A* rule not met

*Q* For COc1ccc(Oc2ccc(NCc3ccc(C#N)cc3)c(NS(=O)(=O)c3ccc(C)cc3)c2)cc1 [Compound 71d] , is the recorded IC50 below the cut-off of 200 µM?
*A* rule not met

*Q* I wonder whether COc1ccc(Oc2ccc(NS(=O)(=O)c3ccc(C)cc3)c(O)c2)cc1 has IC50 below 200 µM. Can you tell?
*A* rule met

*Q* Record COc1ccc(Oc2ccc(NC(=O)c3ccc(C)cc3)c(NS(=O)(=O)c3ccc(C)cc3)c2)cc1 [Compound 71r] : is its IC50 strictly below 200 µM?
*A* rule met

*Q* Check if IC50 falls below 200 µM for COc1ccc(Oc2ccc(NS(=O)(=O)c3ccc(C)cc3)c(N(C)S(=O)(=O)c3ccc(C)cc3)c2)cc1 [Compound 71dd] .
*A* rule met

*Q* Answer whether the compound Cc1ccc(S(=O)(=O)Nc2cc([N+](=O)[O-])c(Sc3ccc(Cl)cc3)cc2N)cc1 has IC50 strictly less than 200 µM
*A* rule met

*Q* A record lists COc1ccc(Oc2ccc(NS(=O)(=O)c3ccc(C)cc3)c(CNC(=O)c3ccc(C)cc3)c2)cc1 [Compound 71p] . Is its IC50 below 200 µM?
*A* rule met

*Q* Does the reported IC50 of COC(=O)c1cc(Oc2ccc(OC)cc2)ccc1NS(=O)(=O)c1ccc(C)cc1 stay below 200 µM?
*A* rule not met

*Q* Bench note: check whether COc1ccc(OCc2ccc(OC)c(NS(=O)(=O)c3ccc(C)cc3)c2)cc1 shows IC50 below 200 µM
*A* rule met

*Q* Please let me know if Cc1ccc(S(=O)(=O)Nc2ccc([N+](=O)[O-])c(Sc3ccc(Cl)cc3)c2)cc1 shows IC50 below 200 µM.
*A* rule not met

*Q* In plain terms, does Cc1ccc(C(=O)Nc2cc([N+](=O)[O-])c(Sc3ccc(Cl)cc3)cc2N)cc1 come in under 200 µM for IC50?
*A* rule not met

*Q* Please determine if COc1ccc(Oc2ccc(NS(=O)(=O)c3ccc(C)cc3)c(NC(=O)c3ccc(C)cc3)c2)cc1 [Compound 71q] is below 200 µM in terms of IC50.
*A* rule met

Values were extracted from patent US20060004197A1.
